The origin of these recorded values is PubChem BioAssay (NCI).

- System: HCT-116 colon
- Assay explanation: NCI-60 one-dose screen, 48 h (100 = growth as untreated, 0 = no growth, -100 = all killed)
- Experimental context: 10 µM unless noted
The panel holds about 83,000 compounds, 20% with a hit somewhere; the sample as a whole holds those more often.
Metric: growth (%)
Answers are plain numbers, in %.

Compound	Quantity unit	growth
COc1cc(/C=C2\C(=O)Nc3ccc(Br)cc32)cc(OC)c1OC	%	37.3
Cc1ccc2c(n1)C(=O)C(Cl)=C(Nc1ccccc1C(C)C)C2=O	%	25.1

Give measured growth for every item shown.
1. Cc1[nH]c(C(=O)Nc2ccc(C(=O)N3CCNCC3)cc2OC(C)C)c(Cl)c1Cl
2. Cc1ccccc1C(=O)NN
3. CCCCOc1nc2ccc(OC)cc2cc1-c1cc(-c2ccc(Cl)cc2)nc(-c2ccc(Cl)cc2)c1
4. Nc1nn(C(=O)Nc2ccc(Cc3ccccc3)cc2)c2ccc(Cl)cc12
5. COc1ccc(-c2cc(-c3ccc(Cl)cc3)c(C#N)c(=O)n2CCCCCC(=O)Nc2ccccc2N)cc1
6. O=C1c2ccccc2NC(n2sc3ccccc3c2=O)N1c1ccccc1 (stereo not given)
7. NCCCNc1nc2ccccc2c2c(=O)c3cc(F)cc(Cl)c3sc12

[A]
1. 14.5
2. 108
3. 102
4. 42.5
5. 22.5
6. 95.7
7. -60.2

---

- Test system: OVCAR-8 ovarian
- Assay explanation: NCI-60 one-dose screen, 48 h (100 = growth as untreated, 0 = no growth, -100 = all killed)
- Experimental context: 10 µM unless noted
About 83,000 compounds went through this panel and 20% of them were active in at least one assay; those are over-represented in the sample as a whole.
Metric: growth (%)
Numbers only, in %.

Observe how each entry below is paired with its result.
> print(dat)
                                   compound  quantity.unit  reported.value
1  Cc1ncc(C(=O)Nc2ccc(CN3CCN(C)CC3)c(C(F)(F)F)c2)cc1C#Cc1ccc(N)nc1              %            19.8
2     NCCNc1nc2ccccc2c2c(=O)c3cc(F)ccc3sc12              %            79.2

Give measured growth for every item shown.
1. COc1ccc(/C=N/Nc2cc(=O)[nH]c3ccc(C)cc23)cc1
2. Cc1ccc(-c2nc(SCC(=O)Nc3nc(-c4ccc(Cl)cc4)cs3)[nH]c(=O)c2C#N)cc1

[A]
[95.6, 92.3]

Give measured growth for every item shown.
1. COc1ccc(-c2nn(C(=O)c3cc(OC)c(OC)c(OC)c3)c3cc(N)ccc23)cc1
2. COc1ccc2[nH]c(-c3ccccc3)c(/C=C(\C#N)S(=O)(=O)c3ccccc3)c2c1
3. COc1ccc(-n2c(N)c(-c3nc4ccccc4[nH]3)cc(C#N)c2=O)cc1
4. CN(C)CCCNc1nc2ccccc2c2c(=O)c3cc(F)ccc3sc12
5. CCOC(=O)c1cn2ncnc(Oc3ccc(NC(=O)NCCN(CC)CC)c(Cl)c3)c2c1C
6. CCCCn1c(=O)c(-c2cc(-c3ccc(Cl)cc3)nc(-c3ccc(Cl)cc3)c2)cc2cc(C)ccc21
7. COc1ccc(C2NC(=O)C(C#N)c3c2sc2c(F)cccc32)c(OC)c1 (stereo not given)

[A]
1: 15.9; 2: 60.7; 3: 69.8; 4: 45.3; 5: 81; 6: 100; 7: 62.3

Give measured growth for every item shown.
1. O=c1[nH]c2c(ccc3cnccc32)c2c1CCC2
2. Cc1ccc(-c2cnc3sc(C(=O)NCCc4ccccc4)c(C)n23)cc1

[A]
1. 13.9
2. 96.9
